Biological target: mouse HER2 (23-653) (Mus musculus)
Assay: TR-FRET competition assay for peptide potency, mouse HER2
Type: binding
Set-up: mouse HER2 (23-653) using a Cy5 labeled peptide as a probe; made in house; host or cells: mammalian cells
Conditions: TR-FRET competition with Cy5 labeled peptide probe, 0.1 nM mouse HER2, 24 h incubation; read-out: moHER2 TR-FRET IC50
Method: Both proteins containing a His-, Avi-tag and biotin in Nterminus, were expressed in mammalian cells and produced in house. […] Standard assay conditions consist of 20 uL total volume in white 384-well plates (Greiner), in 10 mM HEPES buffer containing 150 mM NaCl, 3 mM EDTA, 0.05% Tween20 and 1% final DMSO. […] The ratiometric FRET assay readout is calculated from the ratio of the raw data of the two distinct fluorescence signals measured in time resolved mode (fluorescence 665 nm/fluorescence 620 nm). […]
Where a name gives a salt, the structure may show the parent alone. Positions of bridges follow the written chain, without caps; N, C: chain ends. Non-standard residues stand in square brackets, D forms with d. Residues, ends and D or L forms follow the SMILES beside them. Trp(5-OH) = N[C@@H](Cc1c[nH]c2ccc(O)cc12)C(=O)O; NMePhe(4-F) = CN[C@@H](Cc1ccc(F)cc1)C(=O)O; NMehPhe = CN[C@@H](CCc1ccccc1)C(=O)O; Aad = N[C@@H](CCCC(=O)O)C(=O)O; Gly(cPr) = N[C@H](C(=O)O)C1CC1; NMeDap = CN[C@@H](CN)C(=O)O; NMeS = CN[C@@H](CO)C(=O)O
reportedMetric: IC50 (nM)
Write the number in nM without appending the unit.

mouse HER2 (23-653) (Mus musculus) assay, compound CN1C(=O)[C@H](CO)NC(=O)[C@H](Cc2ccc(O)cc2)NC(=O)[C@@H](N)CCCC(=O)NC[C@@H](C(=O)N(C)[C@@H](Cc2ccc(F)cc2)C(N)=O)N(C)C(=O)[C@H](C2CC2)NC(=O)[C@H](Cc2c[nH]c3ccccc23)NC(=O)[C@H](Cc2c[nH]c3ccc(O)cc23)NC(=O)[C@H](CO)N(C)C(=O)[C@@H]1CCc1ccccc1 [Example A36, TFA salt] (H-[Aad]YS[NMehPhe][NMeS][Trp(5-OH)]W[Gly(cPr)][NMeDap][NMePhe(4-F)]-NH2; lactam 1-9) , recorded IC50 = 102

---

Target: human HER2 (23-652) (Homo sapiens, UniProt P04626)
Assay: Surface plasmon resonance (SPR) for assessment of peptide affinity, human HER2
Format: binding
Parameters: towards human HER2 (23-652) and mouse HER2 (23-653); made in house
Conditions: SPR, human HER2 extracellular domain, 25° C., 1:1 binding model; read-out: huHER2-SPR-ONC KD
Positions of bridges follow the written chain, without caps; N, C: chain ends. Non-standard residues stand in square brackets, D forms with d. Residues, ends and D or L forms follow the SMILES beside them. Trp(5-OH) = N[C@@H](Cc1c[nH]c2ccc(O)cc12)C(=O)O; NMehPhe = CN[C@@H](CCc1ccccc1)C(=O)O; NMeAhp(2) = CCCCC[C@H](NC)C(=O)O; Aad = N[C@@H](CCCC(=O)O)C(=O)O; Gly(cPr) = N[C@H](C(=O)O)C1CC1; NMeK = CN[C@@H](CCCCN)C(=O)O; NMeDap = CN[C@@H](CN)C(=O)O
pKd overview
Keep in mind that pKd stands for -log10 of concentration in molar terms.

See these solved cases before continuing.
[
  {
    "compound": "CC(=O)NCCCC[C@H]1C(=O)N[C@@H](Cc2c[nH]c3ccc(O)cc23)C(=O)N[C@@H](Cc2c[nH]c3ccccc23)C(=O)N[C@@H](C2CC2)C(=O)N(C)[C@H](C(=O)N(C)[C@@H](Cc2ccc(F)cc2)C(=O)N[C@@H](CCCCNC(=O)CN2CCN(CC(=O)O)CCN(CC(=O)O)CCN(CC(=O)O)CC2)C(N)=O)CNC(=O)CCC[C@H](NC(C)=O)C(=O)N[C@H](Cc2ccc(O)cc2)C(=O)N[C@H](CO)C(=O)N(C)[C@@H](CCc2ccccc2)C(=O)N1C [Example C36]",
    "testedTarget": "human HER2 (23-652) (Homo sapiens, UniProt P04626)",
    "pKd": 6.97
  },
  {
    "compound": "CC(=O)N[C@H]1CCC(=O)NCC[C@@H](C(=O)N(C)[C@@H](Cc2ccc(F)cc2)C(N)=O)N(C)C(=O)[C@H](C2CC2)NC(=O)[C@H](Cc2c[nH]c3ccccc23)NC(=O)[C@H](Cc2c[nH]c3ccc(O)cc23)NC(=O)[C@H](CO)N(C)C(=O)[C@H](CCc2ccccc2)N(C)C(=O)[C@H](CO)NC(=O)[C@H](Cc2ccc(O)cc2)NC1=O [Example A10]",
    "testedTarget": "human HER2 (23-652) (Homo sapiens, UniProt P04626)",
    "pKd": 6.32
  },
  {
    "compound": "CC(=O)NCCCC[C@H]1C(=O)N[C@@H](Cc2c[nH]c3ccc(O)cc23)C(=O)N[C@@H](Cc2c[nH]c3ccccc23)C(=O)N[C@@H](C2CC2)C(=O)N(C)[C@H](C(=O)N(C)[C@@H](Cc2ccc(F)cc2)C(=O)N[C@@H](CCCCNC(=O)CN2CCN(CC(=O)O)CCN(CC(=O)O)CCN(CC(=O)O)CC2)C(N)=O)CNC(=O)CCC[C@H](N)C(=O)N[C@@H](Cc2ccc(O)cc2)C(=O)N[C@@H](CO)C(=O)N(C)[C@@H](CCc2ccccc2)C(=O)N1C [Example C18]",
    "testedTarget": "human HER2 (23-652) (Homo sapiens, UniProt P04626)",
    "pKd": 10.00
  }
]

Lab note: next compound to report on.
get_value(item= CCCCC[C@@H](C(N)=O)N(C)C(=O)[C@@H]1CNC(=O)CCC[C@H](NC(C)=O)C(=O)N[C@@H](Cc2ccc(O)cc2)C(=O)N[C@@H](CO)C(=O)N(C)[C@@H](CCc2ccccc2)C(=O)N(C)[C@@H](CCCCNC(C)=O)C(=O)N[C@@H](Cc2c[nH]c3ccc(O)cc23)C(=O)N[C@@H](Cc2c[nH]c3ccccc23)C(=O)N[C@@H](C2CC2)C(=O)N1C [Example A15] (Ac-[Aad]YS[NMehPhe][NMeK](Ac)[Trp(5-OH)]W[Gly(cPr)][NMeDap][NMeAhp(2)]-NH2; lactam 1-9) , readout=pKd) returns 7.62

From: patent US20250332300A1
